Hello, the source for this data is ChEMBL document CHEMBL4354817, in case you need it.

- target_or_system: Histamine H4 receptor (Mus musculus, UniProt Q91ZY2)
- Sequence (Q91ZY2 whole entry): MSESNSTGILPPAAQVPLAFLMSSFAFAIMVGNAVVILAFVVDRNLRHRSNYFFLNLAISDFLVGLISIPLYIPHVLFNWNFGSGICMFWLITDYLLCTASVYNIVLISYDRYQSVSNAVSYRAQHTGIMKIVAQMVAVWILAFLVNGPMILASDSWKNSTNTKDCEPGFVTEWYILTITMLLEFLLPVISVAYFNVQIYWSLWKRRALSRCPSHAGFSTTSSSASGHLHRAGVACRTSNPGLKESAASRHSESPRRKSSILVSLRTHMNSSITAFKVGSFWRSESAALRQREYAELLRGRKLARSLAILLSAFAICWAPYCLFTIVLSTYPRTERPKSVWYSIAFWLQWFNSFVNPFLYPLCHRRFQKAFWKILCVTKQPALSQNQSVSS
measurement_type: Ki (nM)

In [3]: df
Out[3]:
                              smiles_record  numeric_value
0  CCCNC1CN(c2ccnc(N)n2)C1.O.O=C(O)/C=C/C(=O)O           15.8
